- Assay Overview: Rat studies to determine oral bioavailability of bendamustine
- Condition: male, Sprague-Dawley, in vivo, po, 10 mg/kg, read-out: mean AUC0-∞
- Protocol: Rat studies were carried out with the extrudate to determine the oral bioavailability of bendamustine. For this purpose 3 mg/kg bendamustine was applied parenterally to 3 animals and samples were taken at 0, 0.083, 0.25, 0.5, 1, 2, 4, 8 hours and analyzed with a validated HPLC/MS method. […] Samples were taken at 0, 0.25, 0.5, 1, 2, 4, 6, 8 hours and analyzed with a validated HPLC/MS method
Test Readout: AUC(0-inf)
Hi, when you answer, please include the unit after the number. Thanks!

*Q* # return recorded AUC(0-inf) for input "Cn1c(CCCC(=O)O)nc2cc(N(CCCl)CCCl)ccc21"
*A* 742 ng·h/mL

Data provenance: patent US20150050210A1
